study.target: T1, soluble KDR extracellular domain (ECD) (Calbiochem) (human, UniProt P35968 20-764)
T1 construct: extracellular domain; Bought protein; also called KDR-ECD; VEGF Receptor 2 D1-7, Cat. #676490
T1 sequence (P35968 20-764): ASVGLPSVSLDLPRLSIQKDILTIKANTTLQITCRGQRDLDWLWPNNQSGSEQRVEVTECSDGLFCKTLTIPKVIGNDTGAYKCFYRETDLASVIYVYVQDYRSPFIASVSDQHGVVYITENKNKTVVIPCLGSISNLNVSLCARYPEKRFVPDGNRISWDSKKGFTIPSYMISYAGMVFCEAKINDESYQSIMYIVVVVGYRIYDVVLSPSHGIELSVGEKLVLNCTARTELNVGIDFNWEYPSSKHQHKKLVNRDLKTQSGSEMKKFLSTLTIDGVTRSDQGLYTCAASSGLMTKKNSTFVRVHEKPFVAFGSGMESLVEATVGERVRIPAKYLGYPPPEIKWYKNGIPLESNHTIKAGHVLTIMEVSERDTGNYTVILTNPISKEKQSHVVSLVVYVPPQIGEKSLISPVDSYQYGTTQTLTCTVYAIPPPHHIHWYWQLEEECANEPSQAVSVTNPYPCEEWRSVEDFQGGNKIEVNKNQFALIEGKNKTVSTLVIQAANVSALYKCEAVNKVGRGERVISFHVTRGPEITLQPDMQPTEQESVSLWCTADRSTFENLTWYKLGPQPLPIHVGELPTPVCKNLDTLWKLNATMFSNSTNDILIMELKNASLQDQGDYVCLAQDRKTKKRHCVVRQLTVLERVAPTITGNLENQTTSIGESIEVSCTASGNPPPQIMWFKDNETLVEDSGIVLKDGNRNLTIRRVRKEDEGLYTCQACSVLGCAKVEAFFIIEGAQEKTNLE
protocol.details: High Antigen ELISA, KDR coat 500 ng/mL, supernatant 1:75
Reported ELISA reading is given for each of the following binders.
Give the value as a plain number.

Please review the following examples before continuing.
32G7 (antibody, V domains shown, Fully human mAb from XenoMouse hybridoma, tested as hybridoma supernatant) VH: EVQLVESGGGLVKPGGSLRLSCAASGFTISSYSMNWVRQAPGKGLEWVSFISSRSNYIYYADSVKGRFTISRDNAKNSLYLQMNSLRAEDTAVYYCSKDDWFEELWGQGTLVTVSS VL: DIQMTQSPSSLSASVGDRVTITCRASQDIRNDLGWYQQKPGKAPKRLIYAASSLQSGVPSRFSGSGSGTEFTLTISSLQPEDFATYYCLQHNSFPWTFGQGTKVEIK: 1.27
29A3 (antibody, V domains shown, Fully human mAb from XenoMouse hybridoma, tested as hybridoma supernatant) VH: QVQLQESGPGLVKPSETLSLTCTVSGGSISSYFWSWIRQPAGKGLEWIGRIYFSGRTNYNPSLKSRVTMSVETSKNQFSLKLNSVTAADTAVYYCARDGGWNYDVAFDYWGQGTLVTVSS VL: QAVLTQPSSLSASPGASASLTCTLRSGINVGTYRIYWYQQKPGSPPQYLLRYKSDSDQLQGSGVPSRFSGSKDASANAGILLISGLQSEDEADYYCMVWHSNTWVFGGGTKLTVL: 4.06

As a next step, examine the binder that follows.
[in] Request the reported ELISA reading associated with 21A1 (antibody, V domains shown, Fully human mAb from XenoMouse hybridoma, tested as hybridoma supernatant) VH: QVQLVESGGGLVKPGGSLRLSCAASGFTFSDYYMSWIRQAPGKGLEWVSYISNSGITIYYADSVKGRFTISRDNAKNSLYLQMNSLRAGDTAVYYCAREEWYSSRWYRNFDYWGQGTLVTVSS VL: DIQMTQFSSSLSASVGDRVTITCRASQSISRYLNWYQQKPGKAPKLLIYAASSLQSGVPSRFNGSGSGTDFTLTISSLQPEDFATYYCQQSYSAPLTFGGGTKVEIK
[out] 4.43
